# Tested on: IFNγ stimulated STAT1 phosphorylation on Tyr701 (JAK1/2)
# assayInfo: JAK1/2 cellular target modulation: IFNγ stimulated phospho-STAT1 in PBMC
# Type: cell-based
# assayContext: human PBMC, IFNγ 10 ng/ml; read-out: Infγ-STAT1 IC50
attributeMeasured: IC50

The examples below pair each entry with its known result.
molecule | IC50
Cc1nccc(-c2cnc3[nH]ccc3c2N[C@@H]2C[C@H](C)CN(C(=O)CC#N)C2)n1 | ≤ 100 nM
CS(=O)(=O)c1ccc(-c2cnc3[nH]ccc3c2N[C@@H]2CCCN(C(=O)CC#N)C2)nc1 | 100 to 1000 nM
CS(=O)(=O)c1cnc(-c2cnc3[nH]ccc3c2N[C@@H]2CCCN(C(=O)CC#N)C2)o1 | 100 to 1000 nM

Cc1cnc(-c2cnc3[nH]ccc3c2N[C@@H]2CCCN(CCC#N)C2)o1 yielded IC50 of 100 to 1000 nM

N#CCC(=O)N1CCC[C@@H](Nc2c(-c3ccsn3)cnc3[nH]ccc23)C1 yielded IC50 of 100 to 1000 nM

C[C@H]1C[C@@H](Nc2c(-c3ncco3)cnc3[nH]ccc23)CN(C(=O)CC#N)C1 (single isomer, unassigned) yielded IC50 of ≤ 100 nM

Cc1cnc(-c2cnc3[nH]ccc3c2N[C@@H]2CCCN(C(=O)CC#N)C2)o1 yielded IC50 of ≤ 100 nM

CNC(=O)c1coc(-c2cnc3[nH]ccc3c2N[C@@H]2CCCN(C(=O)CC#N)C2)n1 yielded IC50 of 100 to 1000 nM
